The measured values listed here are drawn from PubChem BioAssay.

Test system: XIP peptide (Xip251-270) binding
experimentalDetails: XIP fragment 251-270 binding compounds – biochemical, small-molecule microarray, fluorescence 635/667 nm, 0.1 µg/mL protein, primary screen (AID 1182)
testSettings: fluorescent protein binding, 635 nm, higher = more signal, called active from +8 up or from −8 down
Binary call on composite z-score: Met from 0.5 upward, Not met beneath that.

# bool: composite z-score of C[C@]12C(=O)N(CCCCCO)[C@@H]3C(=O)N(c4ccc(Cl)cc4)CC=CC31O[C@@H]1/C=C\CCCOC(=O)C12 (stereo partly specified) >= 0.5
Met

Further cases:
# bool: composite z-score of CCN(CC)c1ccc(N2CC=CC34O[C@@H]5/C=C\CCCOC(=O)C5[C@H]3C(=O)N(CCCCCO)[C@@H]4C2=O)cc1 (stereo partly specified) >= 0.5
Not met

# bool: composite z-score of `COCCOC(=O)N1C(=O)[C@@]2(c3ccccc31)[C@H](c1ccccc1OCCO)N1[C@H](c3ccccc3)[C@H](c3ccccc3)OC(=O)[C@H]1[C@@H]2C(=O)N1CCc2cc(OC)c(OC)cc2C1` >= 0.5
Not met

# bool: composite z-score of `O=C1O[C@H](c2ccccc2)[C@H](c2ccccc2)N2[C@H]1[C@@H](C(=O)N1CCN(c3ncccn3)CC1)[C@]1(C(=O)Nc3ccc(C#CCCO)cc31)[C@H]2c1ccc(OCCO)cc1` >= 0.5
Met

# bool: composite z-score of `O=C1O[C@H](c2ccccc2)[C@H](c2ccccc2)N2[C@H]1[C@@H](C(=O)N1CCCCCCC1)[C@]1(C(=O)Nc3ccc(C#CCCO)cc31)[C@H]2c1ccc(OCCO)cc1` >= 0.5
Met

# bool: composite z-score of `NC(=O)[C@H]1[C@@H]2C(=O)O[C@@H](c3ccccc3)[C@@H](c3ccccc3)N2[C@@H](c2ccc(O)cc2)[C@]12C(=O)Nc1ccc(C#CC3(O)CCCCCC3)cc12` >= 0.5
Not met

# bool: composite z-score of `COc1ccc([Si](C)(C)[C@@H]2[C@@H](CCO)O[C@]3(C(=O)N(Cc4ccc(N5C(=O)c6ccccc6Oc6ccccc65)cc4)c4ccccc43)[C@H]2C)cc1` >= 0.5
Met

# bool: composite z-score of `C=CCOC(=O)[C@H]1[C@@H]2C(=O)O[C@@H](c3ccccc3)[C@@H](c3ccccc3)N2[C@@H](c2ccc(OCCOC(=O)[C@H]3C[C@H]4C(=O)N[C@@H](CCCCN(C)C)C(=O)N4[C@H]3c3ccc(O)cc3)cc2)[C@]12C(=O)Nc1ccccc12` >= 0.5
Not met

# bool: composite z-score of `COc1ccc([Si](C)(C)[C@H]2[C@H](CCO)O[C@@]3(C(=O)N(Cc4cccc(N5CCOC5=O)c4)c4ccccc43)[C@@H]2C)cc1` >= 0.5
Not met

# bool: composite z-score of CCOC(=O)C1=CCC(c2cccc(Cl)c2)O1 (stereo unspecified) >= 0.5
Met

# bool: composite z-score of O=C1NC(=O)C2C1C=CC(C(O)CCc1ccccc1)N2Nc1ccccn1 (stereo unspecified) >= 0.5
Not met

# bool: composite z-score of CC1CC/C=C\[C@H]2OC34C=CCN(c5ccc(Cl)cc5)C(=O)[C@H]3N(C(CO)C(C)C)C(=O)[C@]4(C)C2C(=O)O1 (stereo partly specified) >= 0.5
Not met

# bool: composite z-score of `COCCCNC(=O)[C@@]1(Cc2ccccc2N=[N+]=[N-])N=C(c2ccc(OCCCO)cc2)O[C@H]1c1ccccc1CN=[N+]=[N-]` >= 0.5
Not met

# bool: composite z-score of `COc1ccccc1CN1C(=O)c2ccccc2[C@](Cc2ccccc2I)(C(=O)NCCN2CCOCC2)[C@@H]1c1ccc(CO)cc1` >= 0.5
Not met

# bool: composite z-score of `C=C(/C(=C/C[C@@H](OC(=O)c1ccncc1)c1cccc(OCCO)c1)c1cc(C(=O)OC)ccc1OC)C(C)C` >= 0.5
Met

# bool: composite z-score of `CCCN1C(=O)[C@@H]2Cc3c([nH]c4ccccc34)[C@@H](c3cccc(O)c3)N2C1=O` >= 0.5
Not met

# bool: composite z-score of `NC(=O)NCC#Cc1ccc2c(c1)[C@]1(C(=O)N2)[C@H](c2ccc(O)cc2)N2[C@H](c3ccccc3)[C@H](c3ccccc3)OC(=O)[C@H]2[C@@H]1C(=O)NC[C@H](O)c1ccccc1` >= 0.5
Not met

# bool: composite z-score of `O=C1O[C@@H](c2ccccc2)[C@@H](c2ccccc2)N2[C@@H](c3ccc(O)cc3)[C@]3(C(=O)Nc4ccc(C#CC5=CCCCC5)cc43)[C@@H](C(=O)Nc3nc4ccccc4s3)[C@H]12` >= 0.5
Not met

# bool: composite z-score of `CCCCCCC#C[Si](O[C@H](c1ccccc1)c1cn(Cc2cccc(Cl)c2)nn1)(C(C)C)C(C)C` >= 0.5
Not met
